# assayed-target: WT UGDH (Homo sapiens, UniProt O60701)
# Sequence (O60701 1-494): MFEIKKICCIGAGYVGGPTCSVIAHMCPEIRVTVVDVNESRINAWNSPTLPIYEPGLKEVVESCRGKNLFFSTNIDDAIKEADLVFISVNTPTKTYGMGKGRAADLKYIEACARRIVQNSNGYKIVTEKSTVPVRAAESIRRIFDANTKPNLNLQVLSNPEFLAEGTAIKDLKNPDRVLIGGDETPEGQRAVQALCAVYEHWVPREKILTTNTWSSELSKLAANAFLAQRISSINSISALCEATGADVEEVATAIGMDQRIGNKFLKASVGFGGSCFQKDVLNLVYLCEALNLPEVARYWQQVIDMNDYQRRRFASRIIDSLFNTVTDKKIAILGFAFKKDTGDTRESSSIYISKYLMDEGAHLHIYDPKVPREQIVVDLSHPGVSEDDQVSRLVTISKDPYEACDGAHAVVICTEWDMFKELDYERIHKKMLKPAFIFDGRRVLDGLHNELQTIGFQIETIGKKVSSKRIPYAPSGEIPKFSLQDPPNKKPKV
measurement-kind: Ki

[[record]]
compound = "O=c1ccn([C@@H]2O[C@H](COP(=O)(O)OP(=O)(O)O[C@H]3OC[C@@H](O)[C@H](O)[C@H]3O)[C@@H](O)[C@H]2O)c(=O)[nH]1 [UDP-xylose, reference compound]"
result = "2.67 µM"


----------
# assayed-target: T325A-UGDH (inducible hexamer) (Homo sapiens, UniProt O60701, T325A)
# procedure-details: UGDH inhibition assay (IC50, Ki), T325A mutant
measurement-kind: IC50 (µM)

[[record]]
compound = "O=C(O)CCc1ccc(-c2cccs2)o1 [Compound 31, 3-[5-(2-thienyl)-2-furyl]propanoic acid]"
unit_abbrev = "µM"
number = 87


----------
# assayed-target: UDP-glucose dehydrogenase (Homo sapiens)
# procedure-details: High throughput screening for inhibitors of UDP-glucose dehydrogenase (NADH fluorescence)
# Assay type: biochemical
# measurement-parameters: compound plates 20 μL/well of 25 μg/mL compound in 2.5% DMSO; relative to DMSO negative and UDP-xylose positive controls; higher POC = more inhibitory; read-out: POC (Percent of Controls)
measurement-kind: inhibition at 25 µg/mL (stock) (%)

[[record]]
molecule = "O=C(CN1CCCCC1)Nc1ccc(S(=O)(=O)N2CCOCC2)cc1"
unit_abbrev = "%"
number = 48

[[record]]
molecule = "COc1cc(/C=C(\\C)[N+](=O)[O-])cc(OC)c1OC"
unit_abbrev = "%"
number = 61

[[record]]
molecule = "CC(=O)C1=C(C)NC(SCc2cccc([N+](=O)[O-])c2)=C(C#N)C1c1cccnc1 (stereo not shown)"
unit_abbrev = "%"
number = 51

[[record]]
molecule = "O=C(Nc1ccc2c(c1)OCCO2)c1cc2ccccc2o1"
unit_abbrev = "%"
number = 103

[[record]]
molecule = "N#CSc1cnc(NC2CCCCC2)s1"
unit_abbrev = "%"
number = 66

[[record]]
molecule = "O=C(O[C@@H]1Cc2c(O)cc(O)cc2O[C@@H]1c1cc(O)c(O)c(O)c1-c1c([C@H]2Oc3cc(O)cc(O)c3C[C@H]2O)cc(O)c(O)c1O)c1cc(O)c(O)c(O)c1"
unit_abbrev = "%"
number = 83

[[record]]
molecule = "CC/C(=C/c1ccc(O)c(OC)c1)[N+](=O)[O-]"
unit_abbrev = "%"
number = 63

[[record]]
molecule = "COc1ccc(-c2ccc(CCC(=O)O)n2-c2ccc(O)cc2)cc1"
unit_abbrev = "%"
number = 57

[[record]]
molecule = "O=[N+]([O-])c1ccc2[nH]c(-c3ccco3)nc2c1"
unit_abbrev = "%"
number = 46

[[record]]
molecule = "NC(=O)c1c(-c2cccs2)csc1N"
unit_abbrev = "%"
number = 46


----------
# assayed-target: WT UGDH (Homo sapiens)
measurement-kind: IC50 (nM)

[[record]]
compound = "O=c1ccn([C@@H]2O[C@H](COP(=O)(O)OP(=O)(O)O[C@H]3OC[C@@H](O)[C@H](O)[C@H]3O)[C@@H](O)[C@H]2O)c(=O)[nH]1 [UDP-xylose, reference compound]"
number = 580


----------
# assayed-target: UDP-glucose dehydrogenase (Homo sapiens)
# procedure-details: High throughput screening for inhibitors of UDP-glucose dehydrogenase (NADH fluorescence)
# Format: biochemical
# measurement-parameters: compound plates 20 μL/well of 25 μg/mL compound in 2.5% DMSO; relative to DMSO negative and UDP-xylose positive controls; higher POC = more inhibitory; read-out: POC (Percent of Controls)
# inhibition at 25 µg/mL (stock) annotations
measurement-kind: inhibition at 25 µg/mL (stock) (%)

[[record]]
molecule = "CCCCC(NC(=O)c1cccc(Br)c1)C(=O)O (stereo not shown)"
unit_abbrev = "%"
number = 103

[[record]]
molecule = "Cc1cc(=O)n2ccc(N)c(O)c2n1"
unit_abbrev = "%"
number = 50

[[record]]
molecule = "N#CSC(C#N)Cc1ccc([N+](=O)[O-])cc1 (stereo not shown)"
unit_abbrev = "%"
number = 80

[[record]]
molecule = "O=C(O)c1cc(O)c(O)c(O)c1"
unit_abbrev = "%"
number = 71

[[record]]
molecule = "COCCN1C(=O)C(O)=C(C(=O)c2ccc(OC)c(C)c2)C1c1ccncc1 (stereo not shown)"
unit_abbrev = "%"
number = 51

[[record]]
molecule = "N#Cc1ccc(Oc2ccc(C(=O)Nc3ccccc3)cc2)cc1"
unit_abbrev = "%"
number = 54

[[record]]
molecule = "CCOc1ccc(N/C(=N/N)c2ccc3ccccc3n2)cc1"
unit_abbrev = "%"
number = 66

[[record]]
molecule = "Cc1ccc(OCCn2ccnc2)cc1"
unit_abbrev = "%"
number = 85

[[record]]
molecule = "Cc1nnc(SC2CC(=O)N(c3ccc(Br)cc3)C2=O)s1 (stereo not shown)"
unit_abbrev = "%"
number = 47

[[record]]
molecule = "O=C1CC(Sc2nnnn2-c2ccccc2)C(=O)N1c1ccc([N+](=O)[O-])cc1 (stereo not shown)"
unit_abbrev = "%"
number = 73

[[record]]
molecule = "N#CSC(C#N)Cc1cccc(Cl)c1 (stereo not shown)"
unit_abbrev = "%"
number = 74

[[record]]
molecule = "Brc1ccc(C2Nc3ccccc3N2)o1"
unit_abbrev = "%"
number = 65

[[record]]
molecule = "Cc1cc(C)n(-c2ccc3cccc([N+](=O)[O-])c3n2)n1"
unit_abbrev = "%"
number = 88

